- EXPERIMENTAL TARGET: HMG-CoA reductase (Rattus norvegicus, UniProt P51639)
- Sequence (P51639 1-887): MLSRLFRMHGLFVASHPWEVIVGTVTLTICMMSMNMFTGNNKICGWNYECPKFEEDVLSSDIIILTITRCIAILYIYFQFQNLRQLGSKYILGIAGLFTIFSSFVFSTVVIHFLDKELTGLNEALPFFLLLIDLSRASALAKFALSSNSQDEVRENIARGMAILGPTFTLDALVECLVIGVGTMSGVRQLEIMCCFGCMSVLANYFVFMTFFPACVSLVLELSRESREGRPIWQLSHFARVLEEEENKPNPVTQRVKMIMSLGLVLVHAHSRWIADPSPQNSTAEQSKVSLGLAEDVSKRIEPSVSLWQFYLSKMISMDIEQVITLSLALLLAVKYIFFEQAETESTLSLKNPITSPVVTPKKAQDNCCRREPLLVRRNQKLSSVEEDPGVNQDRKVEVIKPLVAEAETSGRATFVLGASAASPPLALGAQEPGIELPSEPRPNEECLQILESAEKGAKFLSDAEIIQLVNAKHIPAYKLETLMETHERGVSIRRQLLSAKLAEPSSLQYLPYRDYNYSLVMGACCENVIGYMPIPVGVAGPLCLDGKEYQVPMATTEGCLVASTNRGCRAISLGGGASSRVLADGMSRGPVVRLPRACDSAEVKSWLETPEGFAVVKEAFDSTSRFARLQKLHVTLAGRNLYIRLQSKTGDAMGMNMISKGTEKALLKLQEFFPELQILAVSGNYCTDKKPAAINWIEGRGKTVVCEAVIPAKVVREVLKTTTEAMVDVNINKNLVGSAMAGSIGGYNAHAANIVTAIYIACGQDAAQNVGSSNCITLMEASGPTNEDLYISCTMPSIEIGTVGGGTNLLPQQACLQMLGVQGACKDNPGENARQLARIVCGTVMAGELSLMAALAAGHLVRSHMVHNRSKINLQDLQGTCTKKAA
I'd be grateful if you could share measured pIC50 for these entries.
Answers are plain numbers, as −log10 of the molar value.

Example cases with answers are listed next.
* Cc1cc(C)cc(-c2c(/C=C/[C@@H]3C[C@@H](O)CC(=O)O3)c(C)cc3ccccc23)c1 (relative stereo) | 6.48
* CC[C@H](C)C(=O)O[C@H]1CCC=C2C=C[C@H](C)[C@H](CC[C@@H]3C[C@@H](O)CC(=O)O3)[C@H]21 [Compactin, reference compound] | 6.11

Read the next record carefully.
Q. Give the value of pIC50 reported for the following: Cc1cc(C)cc(-c2c(/C=C/[C@@H](O)C[C@@H](O)CC(=O)O)c(C)cc3ccccc23)c1 (relative stereo)
A. 8.00
